# measured_on: UniProt Q9NUW8
# Sequence (Q9NUW8 whole entry): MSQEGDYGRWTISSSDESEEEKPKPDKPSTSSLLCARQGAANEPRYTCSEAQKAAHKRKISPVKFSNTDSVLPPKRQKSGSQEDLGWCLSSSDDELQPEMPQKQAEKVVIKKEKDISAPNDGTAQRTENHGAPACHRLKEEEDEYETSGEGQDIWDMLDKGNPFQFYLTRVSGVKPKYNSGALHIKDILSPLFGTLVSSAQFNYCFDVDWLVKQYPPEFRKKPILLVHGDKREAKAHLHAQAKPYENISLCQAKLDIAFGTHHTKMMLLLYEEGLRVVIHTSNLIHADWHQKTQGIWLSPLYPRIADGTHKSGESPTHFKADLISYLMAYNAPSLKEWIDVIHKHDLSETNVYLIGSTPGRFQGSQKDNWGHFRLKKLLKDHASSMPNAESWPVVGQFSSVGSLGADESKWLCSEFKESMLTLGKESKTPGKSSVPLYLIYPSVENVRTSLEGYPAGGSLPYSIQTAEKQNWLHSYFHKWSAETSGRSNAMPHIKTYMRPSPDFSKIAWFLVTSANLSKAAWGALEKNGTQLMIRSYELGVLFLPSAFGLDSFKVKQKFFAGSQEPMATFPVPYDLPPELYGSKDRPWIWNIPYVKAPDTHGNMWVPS
# test_description: Inhibition of recombinant TDP1 (unknown origin) assessed as substrate cleavage using 5'-Cy5-GATCTAAAAGACTT-pY-3' DNA substrate measured after 15 mins by gel-based assay
Reported IC50 by item:
Kindly answer with a numeric value in µM, unit omitted.

Give IC50 (UniProt Q9NUW8) of the following molecule: CCN(CC)CCCOc1cc2c(cc1OC)c(=O)n(CCN(C)C)c1c3cc4c(cc3ccc21)OCO4
10

Give recorded IC50 with UniProt Q9NUW8 for the following molecule: COc1cc2c(=O)n(CCN(C)C)c3c4cc5c(cc4ccc3c2cc1OCCCNC12CC3CC(CC(C3)C1)C2)OCO5
1.6
